assayedTarget: Pim 2 (Homo sapiens)
Sequence (Q9P1W9 whole entry): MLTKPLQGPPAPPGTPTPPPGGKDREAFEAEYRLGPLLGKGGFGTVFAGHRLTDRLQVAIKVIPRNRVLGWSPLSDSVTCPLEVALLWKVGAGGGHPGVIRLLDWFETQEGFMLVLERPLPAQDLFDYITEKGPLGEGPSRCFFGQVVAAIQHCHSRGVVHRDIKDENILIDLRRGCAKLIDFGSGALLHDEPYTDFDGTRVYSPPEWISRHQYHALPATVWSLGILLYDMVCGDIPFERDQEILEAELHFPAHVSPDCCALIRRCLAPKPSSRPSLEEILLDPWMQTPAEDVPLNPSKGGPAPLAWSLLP

molecule	uom	IC50
C[C@H]1C[C@@H](c2ccncc2NC(=O)c2ccc(F)c(-c3c(F)cc4c(c3F)OCC[C@]4(C)O)n2)C[C@@H](N)[C@@H]1O [Example 237]	nM	14.2
COCc1cc(F)c(-c2nc(C(=O)Nc3cnccc3[C@@H]3C[C@H](C)C[C@H](N)C3)ccc2F)c(F)c1 [Example 41]	nM	2.78
C[C@@H]1C[C@H](N)C[C@H](c2ccncc2NC(=O)c2cccc(-c3c(F)cc(C4(F)CCOCC4)cc3F)n2)C1 [Example 190]	nM	3.26
C[C@@H]1C[C@H](N)C[C@H](c2ccncc2NC(=O)c2ccc(F)c(-c3c(F)cc(OC[C@H](O)CO)cc3F)n2)C1 [Example 2]	nM	2.99
C[C@@H]1C[C@H](N)C[C@H](c2ccncc2NC(=O)c2nc(-c3c(F)cc(C4(O)CCC4)cc3F)c(F)cc2N)C1 [Example 220]	nM	0.64
COCCOc1cc(F)c(-c2nc(C(=O)Nc3cnccc3[C@H]3C[C@@H](N)[C@H](O)[C@@H](C)C3)ccc2F)c(F)c1 [Example 24]	nM	5.57
C[C@@H]1C[C@H](N)C[C@H](c2ccncc2NC(=O)c2ccc(F)c(-c3c(F)cc4c(c3F)OCC[C@]4(C)O)n2)C1 [Example 239]	nM	1.72
CCOC(C)(C)c1cc(F)c(-c2nc(C(=O)Nc3cnccc3N3C[C@@H](N)[C@H](O)[C@@H](C)C3)ccc2F)c(F)c1 [Example 201]	nM	0.98
COCCOc1ccc(F)c(-c2nc(C(=O)Nc3cnccc3N3C[C@@H](N)[C@H](O)[C@@H](C)C3)ccc2F)c1F [Example 17]	nM	1.92
CCOc1ccc(F)c(-c2nc(C(=O)Nc3cnccc3N3C[C@@H](N)[C@H](O)[C@@H](C)C3)ccc2F)c1F [Example 216]	nM	2.02
C[C@H]1CN(c2ccncc2NC(=O)c2ccc(F)c(-c3c(F)cc(OCC(F)(F)F)cc3F)n2)C[C@@H](N)[C@@H]1O [Example 198]	nM	0.33
CC(C)Oc1cc(F)c(-c2cccc(C(=O)Nc3cnccc3[C@H]3C[C@@H](N)[C@H](O)[C@@H](C)C3)n2)c(F)c1 [Example 189]	nM	2.67
C[C@H]1CN(c2ccncc2NC(=O)c2ccc(F)c(-c3c(F)cc(C4CCOCC4)cc3F)n2)C[C@@H](N)[C@@H]1O [Example 99]	nM	0.57
